biological target: SERT (Homo sapiens)
Sequence (P31645 whole entry, species assumed): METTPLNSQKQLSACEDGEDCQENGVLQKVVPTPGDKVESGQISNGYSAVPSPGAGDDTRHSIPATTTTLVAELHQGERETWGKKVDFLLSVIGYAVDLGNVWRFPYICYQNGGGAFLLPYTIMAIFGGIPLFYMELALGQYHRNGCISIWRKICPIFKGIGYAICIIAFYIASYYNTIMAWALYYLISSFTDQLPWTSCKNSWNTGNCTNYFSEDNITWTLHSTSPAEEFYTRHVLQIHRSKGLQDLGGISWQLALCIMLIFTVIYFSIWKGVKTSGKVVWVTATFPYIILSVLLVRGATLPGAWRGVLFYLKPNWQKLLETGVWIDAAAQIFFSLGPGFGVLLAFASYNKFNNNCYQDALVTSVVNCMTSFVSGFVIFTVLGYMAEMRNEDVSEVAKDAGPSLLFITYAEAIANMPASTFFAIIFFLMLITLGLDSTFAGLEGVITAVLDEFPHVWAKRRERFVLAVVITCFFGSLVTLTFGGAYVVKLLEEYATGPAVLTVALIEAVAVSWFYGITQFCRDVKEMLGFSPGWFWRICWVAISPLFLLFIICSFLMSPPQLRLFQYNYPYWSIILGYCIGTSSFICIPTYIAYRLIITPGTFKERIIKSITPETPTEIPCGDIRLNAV
pKi: −log10 of the molar value.
measuredEndpoint: pKi

Fill in: SERT (Homo sapiens) pKi for CCN(CC)C(=O)CCN1CCN(c2ccc3c(c2)C(N(C)C(=O)OCc2ccccc2)CCC3)CC1 (stereo not shown) [MDW-1-213] = < 5.00

====

Readings of pKi for the listed molecules
Molecular target: 5-HT2C (Homo sapiens, UniProt P28335)
Sequence (P28335 33-458): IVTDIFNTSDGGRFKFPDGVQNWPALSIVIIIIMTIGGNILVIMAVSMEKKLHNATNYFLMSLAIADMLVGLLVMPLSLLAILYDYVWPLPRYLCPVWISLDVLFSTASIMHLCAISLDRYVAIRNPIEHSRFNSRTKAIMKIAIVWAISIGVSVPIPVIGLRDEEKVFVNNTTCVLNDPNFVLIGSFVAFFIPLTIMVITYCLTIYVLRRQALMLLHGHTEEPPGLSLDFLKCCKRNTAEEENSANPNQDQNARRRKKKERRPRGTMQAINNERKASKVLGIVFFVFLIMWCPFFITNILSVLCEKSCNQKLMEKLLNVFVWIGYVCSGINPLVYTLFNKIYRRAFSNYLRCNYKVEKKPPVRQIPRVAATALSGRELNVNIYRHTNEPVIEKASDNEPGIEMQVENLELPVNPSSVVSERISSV
Interpret pKi as the negative base-10 log of the concentration measured in mol/L.

See these solved cases before continuing.
CCCN1CCN(c2ccc3c(c2)C(N(C)C(=O)OCc2ccccc2)CCC3)CC1 (stereo not drawn) | 6.12
CCN(CC)C(=O)CCN1CCN(c2ccc3c(c2)C(N(C)C(=O)OCc2ccccc2)CCC3)CC1 (stereo not drawn) | 5.58

Alright, here's another molecule for you.
// field: pKi; key: CN(C(=O)OCc1ccccc1)C1CCCc2ccc(N3CCN(C4CCCC4)CC3)cc21 (stereo not drawn) ; value = 5.84

====

biological target: Beta3 (Homo sapiens)
Sequence (P13945 whole entry): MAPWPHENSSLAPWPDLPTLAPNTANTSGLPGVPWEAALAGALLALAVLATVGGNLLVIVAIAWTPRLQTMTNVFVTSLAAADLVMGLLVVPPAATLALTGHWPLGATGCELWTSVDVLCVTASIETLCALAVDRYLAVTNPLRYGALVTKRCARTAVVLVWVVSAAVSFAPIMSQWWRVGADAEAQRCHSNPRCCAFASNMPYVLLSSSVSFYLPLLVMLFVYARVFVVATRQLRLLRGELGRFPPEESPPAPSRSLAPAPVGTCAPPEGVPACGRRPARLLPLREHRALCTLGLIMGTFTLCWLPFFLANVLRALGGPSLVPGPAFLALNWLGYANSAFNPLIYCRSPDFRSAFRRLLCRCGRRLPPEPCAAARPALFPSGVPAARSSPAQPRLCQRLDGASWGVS
measuredEndpoint: Ki (µM)
Express the result in µM but write the number alone.

// field: Ki; key: CN(C(=O)OCc1ccccc1)C1CCCc2ccc(N3CCN(CCCO)CC3)cc21 (stereo not shown) ; value = 8.04

====

Readings of Ki for the listed compounds
molecular target: UniProt Q99720; experiment: Sigma 1 receptor radioligand competition binding; conditions: Table 1, 7-piperazinyl-tetrahydronaphthalene analogs; read-out: Ki (nM) Sig1R
Sequence (Q99720 whole entry, species assumed): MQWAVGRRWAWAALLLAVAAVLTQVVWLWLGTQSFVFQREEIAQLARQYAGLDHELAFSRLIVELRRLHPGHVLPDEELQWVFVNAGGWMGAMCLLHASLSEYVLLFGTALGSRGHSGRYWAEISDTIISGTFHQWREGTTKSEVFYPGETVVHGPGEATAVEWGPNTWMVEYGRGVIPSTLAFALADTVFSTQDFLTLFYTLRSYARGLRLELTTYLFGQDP
Express the result in nM but write the number alone.

See these solved cases before continuing.
CN(C(=O)OCc1ccccc1)C1CCCc2ccc(N3CCN(C4CCCCC4)CC3)cc21 (stereo not drawn) | 16
COC(=O)CCN1CCN(c2ccc3c(c2)C(N(C)C(=O)OCc2ccccc2)CCC3)CC1 (stereo not drawn) | 2860
CCCN1CCN(c2ccc3c(c2)C(NC(=O)OCc2ccccc2)CCC3)CC1 (stereo not drawn) | 174
CN(C(=O)OCc1ccccc1)C1CCCc2ccc(N3CCN(CCCO)CC3)cc21 (stereo not drawn) | 474
CCCN1CCN(c2ccc3c(c2)C(N(CCC)C(=O)OCc2ccccc2)CCC3)CC1 (stereo not drawn) | 199
CN(C(=O)OCc1ccccc1)C1CCCc2ccc(N3CCN(C4CCCC4)CC3)cc21 (stereo not drawn) | 86
CCCN1CCN(c2ccc3c(c2)C(N(CC)C(=O)OCc2ccccc2)CCC3)CC1 (stereo not drawn) | 321
CC(C)N1CCN(c2ccc3c(c2)C(N(C)C(=O)OCc2ccccc2)CCC3)CC1 (stereo not drawn) | 223

Alright, here's another compound for you.
// field: Ki; key: CCN1CCN(c2ccc3c(c2)C(N(C)C(=O)OCc2ccccc2)CCC3)CC1 (stereo not drawn) ; value = 887

Data origin, for the record: patent US20210323913A1
